Value source: ChEMBL document CHEMBL1156187

pEC50 listing for selected compounds.
# ASSAYED TARGET: Melanocortin receptor 5 (Homo sapiens)
# Sequence (P33032 whole entry): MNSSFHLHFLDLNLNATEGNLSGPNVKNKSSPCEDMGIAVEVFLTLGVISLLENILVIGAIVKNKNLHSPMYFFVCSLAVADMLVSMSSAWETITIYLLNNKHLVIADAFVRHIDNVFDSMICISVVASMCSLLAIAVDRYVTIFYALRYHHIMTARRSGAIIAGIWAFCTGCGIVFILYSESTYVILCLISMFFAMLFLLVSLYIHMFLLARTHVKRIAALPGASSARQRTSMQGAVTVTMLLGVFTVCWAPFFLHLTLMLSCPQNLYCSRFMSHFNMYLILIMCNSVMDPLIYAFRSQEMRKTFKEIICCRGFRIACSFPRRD
# ASSAY PROCEDURE: Agonist activity at human recombinant MC5 receptor expressed in HEK293 cells assessed as cAMP accumulation by beta lactamase reporter gene assay
pEC50: −log10 of the molar value.

Example entries and their recorded answers appear below.
SMILES ENTRY: C[C@@H]1CN(C(=O)[C@@H]2CN(C)C[C@H]2c2ccc(F)cc2F)C[C@H](C)[C@@]1(O)c1ccccc1
ASSAYED TARGET: Melanocortin receptor 5 (Homo sapiens)
pEC50: < 4.70
//
SMILES ENTRY: C[C@@H]1CN(C(=O)[C@@H]2CNC[C@H]2c2ccc(F)cc2F)C[C@H](C)[C@@]1(O)c1ccccc1
ASSAYED TARGET: Melanocortin receptor 5 (Homo sapiens)
pEC50: < 4.70
//
SMILES ENTRY: C[C@@H]1CN(C(=O)[C@@H]2CN(C(C)(C)C)C[C@H]2c2ccc(F)cc2F)C[C@H](C)[C@@]1(O)c1c(F)cccc1F
ASSAYED TARGET: Melanocortin receptor 5 (Homo sapiens)
pEC50: < 5.24
//
SMILES ENTRY: C[C@@H]1CN(C(=O)[C@H]2CN(c3cccnn3)C[C@@H]2c2ccc(F)cc2F)C[C@H](C)[C@@]1(O)c1ccccc1
ASSAYED TARGET: Melanocortin receptor 5 (Homo sapiens)
pEC50: < 4.70

We next turn to a different compound, shown below.
Recall the reported pEC50 of `C[C@@H]1CN(C(=O)[C@H]2CN(c3ncccn3)C[C@@H]2c2ccc(F)cc2F)C[C@H](C)[C@@]1(O)c1ccccc1` on Melanocortin receptor 5 (Homo sapiens) and write it down.
< 4.95
